- EXPERIMENTAL_TARGET: P2X7 receptor (Homo sapiens)
- Construct: host or cells: SH-SY5Y
- Sequence (Q99572 whole entry): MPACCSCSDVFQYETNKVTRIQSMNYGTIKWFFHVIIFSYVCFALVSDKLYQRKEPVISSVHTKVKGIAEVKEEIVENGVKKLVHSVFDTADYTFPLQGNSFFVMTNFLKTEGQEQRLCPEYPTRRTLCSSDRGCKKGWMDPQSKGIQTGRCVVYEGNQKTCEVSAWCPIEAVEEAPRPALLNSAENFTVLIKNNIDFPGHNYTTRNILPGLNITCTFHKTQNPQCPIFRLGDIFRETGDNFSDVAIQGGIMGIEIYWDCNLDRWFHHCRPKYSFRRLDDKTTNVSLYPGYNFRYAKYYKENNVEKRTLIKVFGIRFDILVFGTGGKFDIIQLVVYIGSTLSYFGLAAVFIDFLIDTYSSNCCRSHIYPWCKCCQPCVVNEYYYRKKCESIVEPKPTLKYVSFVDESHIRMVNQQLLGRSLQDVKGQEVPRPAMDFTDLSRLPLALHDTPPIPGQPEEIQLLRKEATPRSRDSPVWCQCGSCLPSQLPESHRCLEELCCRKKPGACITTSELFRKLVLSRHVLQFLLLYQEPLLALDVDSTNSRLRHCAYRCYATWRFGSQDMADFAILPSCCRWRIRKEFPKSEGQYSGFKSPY
- MEASUREMENT_PROTOCOL: P2X7 calcium mobilization assay, high throughput, antagonist activity (Example 4A)
- Format: cell-based
- APPLIED_CONDITIONS: 50% decrease in the fluorescence response of cells exposed to 80 μM of 2′(3′)-O-(4-benzoyl-benzoyl)adenosine 5′-triphosphate; determined as in Example 4A; read-out: IC50
READOUT_NAME: IC50

These recorded examples may help you get a feel for the data.
>  <COMPOUND>
O=C(Cc1cn2c(C(=O)NCC3(c4ccc(C(F)(F)F)cc4)CCCCC3)cccc2n1)NC1CCCC1 [Compound 877]

>  <READOUT_NAME>
IC50

>  <VAL>
< 2000 nM

$$$$
>  <COMPOUND>
O=C(Cc1cn2c(C(=O)NCC3(c4ccc(Cl)cc4)CCCCC3)cccc2n1)NC1CCCC1 [Compound 866]

>  <READOUT_NAME>
IC50

>  <VAL>
< 2000 nM

$$$$
>  <COMPOUND>
NC(=O)c1cccc(NC(=O)Cc2cn3c(C(=O)NCC4CCCCCC4)cccc3n2)c1 [Compound 955]

>  <READOUT_NAME>
IC50

>  <VAL>
< 2000 nM

$$$$

Lookup: I would be grateful if you could share the reported IC50 for O=C(NCC1(c2ccc(F)cc2)CCCCC1)c1cccc2nc(CC(Cc3ccccc3)C(=O)O)cn12 (stereo not drawn) [Compound 1012] .
Found: < 2000 nM

Lookup: Endpoint output: IC50 of CN(C)C1CCCN(C(=O)Cc2cn3c(C(=O)NCC4(c5ccc(C(F)(F)F)cc5)CCCCC4)cccc3n2)C1 (stereo not drawn) [Compound 892] . Value?
Found: < 2000 nM

Lookup: Fill blank: measured IC50 of the compound CC(C)CC(CNC(=O)c1cccc2nc(C(=O)n3ccc(N)n3)cn12)c1ccc(Cl)cc1 (stereo not drawn) [Compound 854] is ____.
Found: < 2000 nM

Lookup: Report IC50 for O=C(Cc1cn2c(C(=O)NCC3CCCCC3)cccc2n1)NCC1(c2ccc(Cl)cc2)CCCCC1 [Compound 978] please.
Found: < 2000 nM

Lookup: Entry under review: CCC(C)NC(=O)Cc1cn2c(C(=O)NCC3(c4ccc(Cl)cc4)CCCCC3)cccc2n1 (stereo not drawn) [Compound 870] . Reported IC50?
Found: < 2000 nM

Lookup: Report IC50 for O=C(NCC12CC3CC(CC(C3)C1)C2)c1cccc2nc(C(=O)n3ccc(N4CCNC4=O)n3)cn12 [Compound 826] please.
Found: < 2000 nM

Lookup: Which IC50 is listed for Cc1ccc(C2(CNC(=O)c3cccc4nc(Cn5nnc(CCO)n5)cn34)CCCCC2)cn1 [Compound 922] ?
Found: < 2000 nM

Lookup: Using the record for CC(C)CC(CNC(=O)c1cccc2nc(C(Cc3ccccn3)C(=O)O)cn12)c1ccc(Cl)cc1 (stereo not drawn) [Compound 938] , report its IC50.
Found: < 2000 nM

Lookup: Name the reported IC50 value associated with the compound CC(C)(C)[Si](C)(C)OCCCn1ccc(NCc2cn3c(C(=O)NCC45CC6CC(CC(C6)C4)C5)cccc3n2)n1 [Compound 999]
Found: < 2000 nM

Lookup: Which IC50 value is on record for Cc1ccc(C(CNC(=O)c2cccc3nc(Cn4nnc(CCO)n4)cn23)CC(C)C)cc1 (stereo not drawn) [Compound 917] ?
Found: < 2000 nM

Lookup: Name the recorded IC50 for CCCCC(C(=O)O)c1cn2c(C(=O)NCC34CC5CC(CC(C5)C3)C4)cccc2n1 (stereo not drawn) [Compound 908] .
Found: < 2000 nM

Lookup: Query (compound): O=C(O)Cc1cn2c(C(=O)NCC3(c4ccc(Cl)cc4)CCCCC3)cccc2n1 [Compound 949] ; field requested: IC50
Found: < 2000 nM
